- test_system: T1, human OT7T175 (metastin receptor) (human, UniProt Q969F8 1-398)
- T1 construct: expressed on CHO cells (hOT7T175-expressed CHO cells; hOT7T175/CHO); also called hOT7T175; h0T7T175
- T1 sequence (Q969F8 whole entry L364H): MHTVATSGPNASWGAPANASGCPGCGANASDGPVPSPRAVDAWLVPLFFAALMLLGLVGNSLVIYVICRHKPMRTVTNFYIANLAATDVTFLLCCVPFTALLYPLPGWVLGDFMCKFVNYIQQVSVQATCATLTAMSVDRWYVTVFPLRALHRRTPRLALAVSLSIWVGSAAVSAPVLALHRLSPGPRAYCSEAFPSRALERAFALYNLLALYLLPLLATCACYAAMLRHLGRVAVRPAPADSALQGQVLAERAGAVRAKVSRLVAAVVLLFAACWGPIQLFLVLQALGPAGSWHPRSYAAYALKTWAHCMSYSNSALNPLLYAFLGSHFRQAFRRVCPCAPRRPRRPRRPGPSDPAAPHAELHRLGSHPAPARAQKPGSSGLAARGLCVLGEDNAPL
- assay: FMAT competition with Cy-5-labeled metastin (40-54), hOT7T175-expressed CHO cells
Square brackets hold non-standard residues; d marks the D form. Ends that are not written are not given here. Phe(4-Cl) = N[C@@H](Cc1ccc(Cl)cc1)C(=O)O; Phe(4-F) = N[C@@H](Cc1ccc(F)cc1)C(=O)O; Arg(Me) = CNC(=N)NCCC[C@H](N)C(=O)O; azaGly = NNC(=O)O
Recorded IC50, one value per entry.
Respond with the bare value in nM.

Solved entries:
[dY]SNSF[azaGly]L[Arg(Me)]F-NH2 [Compound No. 239: des(1)-[D-Tyr2,Ser3,AzaGly7,Arg(Me)9]MS10]: 120
YNWNSFGLR[Phe(4-Cl)]-NH2 [Compound No. 130: [Phe(4Cl)10]MS10]: 42

// below: IC50 requested for another binder
Measured IC50, [dY][dN]TNSF[azaGly]L[Arg(Me)][Phe(4-F)]-NH2 [Compound No. 316: [D-Tyr1,D-Asn2,Thr3,AzaGly7,Arg(Me)9,Phe(4F)10]MS10] : 26
